Below are IC50 values measured for GSK 3α (Homo sapiens (Human), UniProt P49840).
Reported metric: IC50 (nM)

[[record]]
molecule = "COc1cc(Nc2cc(Oc3ccc(NC(=O)Nc4cc(C(C)(C)C)cc(NS(C)(=O)=O)c4OC)c4ccccc34)ccn2)cc(OCCOCCOCCO)c1 [84(e)]"
measurement_target = "GSK 3α (Homo sapiens (Human), UniProt P49840)"
unit_name = "nM"
observed_value = 4470

[[record]]
molecule = "COCCOCCOCCOc1cc(Nc2nccc(Oc3ccc(NC(=O)Nc4cc(C(C)(C)C)cc(C(=O)NC(C)C)c4OC)c4ccccc34)n2)cc(OC)c1"
measurement_target = "GSK 3α (Homo sapiens (Human), UniProt P49840)"
unit_name = "nM"
observed_value = 705

[[record]]
molecule = "C#Cc1cc(Nc2cc(Oc3ccc(NC(=O)Nc4cc(C(C)(C)C)cc(NS(C)(=O)=O)c4OC)c4ccccc34)ccn2)cc(C(=O)NCCOCCOC)c1"
measurement_target = "GSK 3α (Homo sapiens (Human), UniProt P49840)"
unit_name = "nM"
observed_value = 12600

[[record]]
molecule = "COCCOCCOCCOc1cc(Nc2nccc(Oc3ccc(NC(=O)Nc4cc(C(C)(C)C)cc(C(=O)NCCN(C)C)c4OC)c4ccccc34)n2)cc(OC)c1"
measurement_target = "GSK 3α (Homo sapiens (Human), UniProt P49840)"
unit_name = "nM"
observed_value = 636

[[record]]
molecule = "COc1cc(Nc2nccc(Oc3ccc(NC(=O)Nc4cc(C(C)(C)C)cc(NS(C)(=O)=O)c4OC)c4ccccc34)n2)cc(C(=O)NCCOCCOCCC(=O)O)c1"
measurement_target = "GSK 3α (Homo sapiens (Human), UniProt P49840)"
unit_name = "nM"
observed_value = 51

[[record]]
molecule = "COc1cc(Nc2cc(Oc3ccc(NC(=O)Nc4cc(C(C)(C)C)cc(NS(C)(=O)=O)c4OC)c4ccccc34)ccn2)cc(C(=O)NCCN2CCN(C)CC2)c1"
measurement_target = "GSK 3α (Homo sapiens (Human), UniProt P49840)"
unit_name = "nM"
observed_value = 4330

[[record]]
molecule = "COc1cc(Nc2cc(Oc3ccc(NC(=O)Nc4cc(C(C)(C)C)cc(NS(C)(=O)=O)c4OC)c4ccccc34)ccn2)cc(C(=O)NCCN2CCCCC2)c1 [83(e)]"
measurement_target = "GSK 3α (Homo sapiens (Human), UniProt P49840)"
unit_name = "nM"
observed_value = 1590

[[record]]
molecule = "COc1c(NC(=O)Nc2ccc(Oc3ccnc(Nc4ccccc4)c3)c3ccccc23)cc(C(C)(C)C)cc1C(=O)NC1COC1"
measurement_target = "GSK 3α (Homo sapiens (Human), UniProt P49840)"
unit_name = "nM"
observed_value = 6030


---

Below are IC50 values measured for c-Src (Homo sapiens (Human)).
Reported metric: IC50 (nM)

[[record]]
compound = "C#Cc1cc(Nc2cc(Oc3ccc(NC(=O)Nc4cc(NS(C)(=O)=O)cc(C(C)(C)C)c4)c4ccccc34)ccn2)cc(C(=O)NCCN2CCOCC2)c1"
unit_name = "nM"
observed_value = 85

[[record]]
compound = "COCCOCCOCCOc1cc(Nc2nccc(Oc3ccc(NC(=O)Nc4cc(C(C)(C)C)cc(NS(C)(=O)=O)c4OC)c4ccccc34)n2)cc(OC(F)F)c1"
unit_name = "nM"
observed_value = 40

[[record]]
compound = "COCCOCCOCCOc1cc(Nc2nccc(Oc3ccc(NC(=O)Nc4cc(C(C)(C)C)cc(NS(C)(=O)=O)c4-c4ccccc4)c4ccccc34)n2)cc(OC)c1"
unit_name = "nM"
observed_value = 22

[[record]]
compound = "COCCOCCOCCOc1cc(Nc2nccc(Oc3ccc(NC(=O)Nc4cc(C(C)(C)C)cc(NS(C)(=O)=O)c4OC)c4ccccc34)n2)cc(OC)c1"
unit_name = "nM"
observed_value = 14

[[record]]
compound = "COc1cc(Nc2cc(Oc3ccc(NC(=O)Nc4cc(C(C)(C)C)cc(NS(C)(=O)=O)c4OC)c4ccccc34)ccn2)cc(OCCOCCOCCO)c1 [84(e)]"
unit_name = "nM"
observed_value = 36

[[record]]
compound = "COc1cc(Nc2cc(Oc3ccc(NC(=O)Nc4cc(C(C)(C)C)cc(NS(C)(=O)=O)c4OC)c4ccccc34)ccn2)cc(C(=O)NCCN2CCN(C)CC2)c1"
unit_name = "nM"
observed_value = 35

